Molecular target: human IgG (Chugai Pharmaceutical Co., Ltd.) (human)
Assay: SPR (BIAcore T200), IgG immobilised; 1:1 binding fit
*1 amine or outer side, *2 acyl side, *3 side chain or, on linkers, in order; H or OH if unused. Bridges are numbered along the chain shown (N, C = ends). Primed or numbered codes have the meaning given here. The star is where a group is joined. Biotin = O=C1N[C@H]2[C@H](CS[C@H]2CCCCC(=O)*)N1; Glutaryl = O=C(CCCC(=O)[*:2])[*:1]; HOOC(CH2)6CO = O=C(O)CCCCCCC(=O)*; PEG4′ = not defined here
For each of the binders below, state its Kd.
Respond numerically; units are nM and should not be typed.

**Query** Provide Kd value for the following binder: {Biotin-PEG4′}-GDDCAYHK(Glutaryl)GELVWCTFH-NH2 (disulfide 4-14 (inferred)) [Type I(R8K)-DSG-OH, GDDCAYHK(DSG-OH)…-NH2]
**Result** 315

**Query** Provide Kd value for the following binder: {Biotin-PEG4′}-GDDCAYHK(HOOC(CH2)6CO)GELVWCTFH-NH2 (disulfide 4-14 (inferred)) [Type I(R8K)-DSS-OH, GDDCAYHK(DSS-OH)…-NH2]
**Result** 365

**Query** Provide Kd value for the following binder: {Biotin-PEG4′}-GPDCAYHRGELVWCTFH-NH2 (disulfide 4-14 (inferred)) [Type I IgG-binding peptide, …-NH2]
**Result** 9.1

**Query** Provide Kd value for the following binder: {Biotin-PEG4′}-GDDCAYHKGELVWCTFH-NH2 (disulfide 4-14 (inferred)) [Type I(R8K) IgG-binding peptide, …-NH2]
**Result** 156
